Data provenance is paper PMC11982978.

# targetSystem: ERK2 D319N (Mus musculus, UniProt P63085, D319N)
# Construct: His6
# Sequence (P63085 whole entry D319N): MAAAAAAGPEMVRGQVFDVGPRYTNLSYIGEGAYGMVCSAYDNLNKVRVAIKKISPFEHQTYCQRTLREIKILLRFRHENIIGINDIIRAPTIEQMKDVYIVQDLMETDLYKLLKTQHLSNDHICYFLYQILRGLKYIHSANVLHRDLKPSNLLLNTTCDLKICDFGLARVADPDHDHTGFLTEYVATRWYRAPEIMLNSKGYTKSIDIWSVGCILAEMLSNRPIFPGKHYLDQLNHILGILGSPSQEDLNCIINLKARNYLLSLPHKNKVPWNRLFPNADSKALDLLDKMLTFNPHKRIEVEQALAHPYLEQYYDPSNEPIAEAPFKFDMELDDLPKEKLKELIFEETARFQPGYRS
# experimentalDetails: Competitive peptide kinase assay (D-peptide inhibition), ERK2 D319N
# conditionContext: Table S1, 5 μM reporter peptide, 10 nM ERK2, 10 μM ATP, three independent experiments
Peptide text beside a SMILES is read from it.
readoutName: pIC50
Hey, just a heads up that pIC50 is the negative log base 10 of the concentration in molar.

CC(C)C[C@H](NC(=O)[C@@H](NC(=O)[C@H](CC(C)C)NC(=O)[C@H](CO)NC(=O)[C@@H](NC(=O)[C@H](CC(N)=O)NC(=O)[C@H](CO)NC(=O)CNC(=O)[C@H](CCCNC(=N)N)NC(=O)[C@H](CCCNC(=N)N)NC(=O)[C@H](CCC(=O)O)NC(=O)[C@H](CCC(N)=O)NC(=O)[C@H](CC(C)C)NC(=O)CNC(=O)[C@H](C)NC(=O)[C@@H](N)Cc1ccc(O)cc1)C(C)C)[C@@H](C)O)C(=O)O [PTPN5] (H-YAGLQERRGSNVSLTL-OH) yielded pIC50 of 3.22

GET /value?item= CC[C@H](C)[C@H](NC(=O)[C@@H](NC(=O)[C@H](CC(C)C)NC(=O)[C@H](C)NC(=O)[C@@H]1CCCN1C(=O)[C@H](CC(C)C)NC(=O)[C@@H](NC(=O)[C@@H]1CCCN1C(=O)[C@H](CCCCN)NC(=O)[C@H](CCCNC(=N)N)NC(=O)[C@H](CCCNC(=N)N)NC(=O)[C@H](C)NC(=O)[C@H](C)NC(=O)[C@@H](N)Cc1ccc(O)cc1)C(C)C)[C@@H](C)O)C(=O)N[C@@H](CC(N)=O)C(=O)N1CCC[C@H]1C(=O)O [MAP2K2] (H-YAARRKPVLPALTINP-OH) &field=pIC50 returns 4.64
